# EXPERIMENTAL_DETAILS: NCI Yeast Anticancer Drug Screen. Data for the cln2 rad14 strain (AID 165);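 also: 0% = growth equal to vehicle treated cultures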
# SETTINGS: S. cerevisiae cln2 rad14 strain, at 50.0 µM, stronger effect = higher value
About 79,000 compounds went through this panel and 15% of them were active in at least one assay; those are over-represented in the sample as a whole.
Use 10% as the dividing line for growth inhibition, with the line itself on the 1 side and lower values as -1.

Previously resolved entries follow.
COMPOUND	LABEL_VALUE
O=C1OC(/C=C/c2ccccc2)Sc2ccccc21 (stereo unspecified)	-1
C=Cc1c(C)c(O)cc2c1-c1ccc(O)c(C)c1CC2	1
O=c1[nH]cc(F)c(=O)[nH]1	1
Nc1cccc2cc(Cl)cnc12	1
O=c1[nH]c(=O)n(CCCO)cc1F	-1

Consider the record given below.
Problem: Reported growth inhibition at or above 10%? `O=C(CCC(=O)c1ccc(O)cc1)Oc1ccc(O)cc1`
Solution: -1

Reference source: PubChem BioAssay (NCI)
